Test: Toxicity tests, LD50 on mice after intraperitoneal administration
Conditions: mouse, in vivo, ip

Molecule: CO[C@H]([C@H](OC)[C@@H]1CO1)[C@H]1CO1 [DMDAD, 1,2-5,6-dianhydro-3,4-dimethyl dulcitol]
LD50: 680 mg/kg

Molecule: CO[C@H]([C@@H]1CO1)[C@H]1CO1 [MMDAX, 1,2-4,5-dianhydro-3-methyl-xylitol]
LD50: 500 mg/kg

Molecule: CO[C@H]([C@H](OC)[C@@H](O)CBr)[C@H](O)CBr [DMDBD]
LD50: 700 mg/kg
